Where these numbers come from: patent US20250051277A1

Provide the recorded Condition 1 Conversion (%), first value of pair x/y for the entries that follow.
- Format: physicochemical
- PARTICULARS: SGF with pepsin, pH 1.5, 37° C.; time 4 h; first of two values
Answers are plain numbers, in %.

Answered cases to consult:
# COMPOUND, VALUE MEASURED
rows = [
    ("COc1ccc([C@@]23CC/C(=N\\OC(C)(C)OC)C[C@@H]2N(C)CC3)cc1OC [Compound 204]", 0),
    ("COc1ccc([C@@]23CCC(=NOCC(=O)OC(C)(C)C)C[C@@H]2N(C)CC3)cc1OC [Compound 202]", 3.01),
    ("COc1ccc([C@@]23CCC(=NOC4CCCCO4)C[C@@H]2N(C)CC3)cc1OC (stereo partly shown) [Compound 206]", 0),
]

Could you now look at the following compound, please?
Item COc1ccc([C@@]23CC/C(=N/OC(C)(C)OC)C[C@@H]2N(C)CC3)cc1OC [Compound 219] has what recorded Condition 1 Conversion (%), first value of pair x/y? 0
